Assay: Biodistribution of radiotracers in normal mice
Type: in vivo, mouse
Details: normal male mice, 60 min
QUANTITY_NAME: Biodistribution: Bone (% dose/g)
Report the figure in % dose/g without appending any unit label.

Request: Answer with the recorded Biodistribution: Bone of O=C(O)CCc1ccc(O)c(CN(CCN(CC(=O)O)Cc2cc(CCC(=O)NCCCCCC(=O)NCCCC[C@H](NC(=O)N[C@@H](CCC(=O)O)C(=O)O)C(=O)O)ccc2O)CC(=O)O)n1 [[^68Ga]4a, metal not drawn] only.
Result: 0.24

###

Each item that follows carries a reported Biodistribution: Brain.
Assay: Biodistribution of radiotracers in normal mice
Assay type: in vivo, mouse
Conditions: normal male mice, 30 min
Report the figure in % dose/g without appending any unit label.

In the examples that follow, each entry is paired with its recorded Biodistribution: Brain.
MOLECULE	OBSERVED
O=C(O)CCc1ccc2c(c1)C[N+]13CC[N+]45CC(=O)[O][68Ga-3]14([O]C(=O)C3)([O]2)[O]c1ccc(CCC(=O)NCC(=O)N[C@@H](Cc2ccc(OCC(=O)N[C@@H](Cc3ccccc3)C(=O)NCCCC[C@H](NC(=O)N[C@@H](CCC(=O)O)C(=O)O)C(=O)O)cc2)C(=O)O)cc1C5 (stereo partly drawn) [[^68Ga]5b]	0.05
O=C(O)CC[C@H](NC(=O)N[C@@H](CCCCNC(=O)CCCCCNC(=O)CCc1ccc2c(n1)C[N+]13CC[N+]45CC(=O)[O][68Ga-3]14([O]C(=O)C3)([O]2)[O]c1ccc(CCC(=O)NCCCCCC(=O)NCCCC[C@H](NC(=O)N[C@@H](CCC(=O)O)C(=O)O)C(=O)O)nc1C5)C(=O)O)C(=O)O (stereo partly drawn) [[^68Ga]3]	0.09
O=C(O)CCc1ccc(O)c(CN(CCN(CC(=O)O)Cc2cc(CCC(=O)NCCCCCC(=O)NCCCC[C@H](NC(=O)N[C@@H](CCC(=O)O)C(=O)O)C(=O)O)ccc2O)CC(=O)O)n1 [[^68Ga]4a, metal not drawn]	0.04
O=C(O)CCc1ccc2c(c1)C[N+]13CC[N+]45CC(=O)[O][68Ga-3]14([O]C(=O)C3)([O]2)[O]c1ccc(CCC(=O)NCCCCCC(=O)NCCCC[C@H](NC(=O)N[C@@H](CCC(=O)O)C(=O)O)C(=O)O)cc1C5 (stereo partly drawn) [[^68Ga]1a, reference compound]	0.03
O=C(O)CC[C@H](NC(=O)N[C@@H](CCCCNC(=O)CCCCCNC(=O)CCc1ccc2c(c1)C[N+]13CC[N+]45CC(=O)[O][68Ga-3]14([O]C(=O)C3)([O]2)[O]c1ccc(CCC(=O)NCCNC(=O)CN2CCN(CC(=O)O)CCN(CC(=O)O)CCN(CC(=O)O)CC2)cc1C5)C(=O)O)C(=O)O (stereo partly drawn) [[^68Ga]1g]	0.06

Request: Answer with the recorded Biodistribution: Brain of O=C(O)CCc1ccc2c(n1)C[N+]13CC[N+]45CC(=O)[O][68Ga-3]14([O]C(=O)C3)([O]2)[O]c1ccc(CCC(=O)NCCCCCC(=O)NCCCC[C@H](NC(=O)N[C@@H](CCC(=O)O)C(=O)O)C(=O)O)nc1C5 (stereo partly drawn) [[^68Ga]2] only.
Result: 0.05

###

Assay: Biodistribution of radiotracers in normal mice
Type: in vivo, mouse
Details: normal male mice, 60 min
QUANTITY_NAME: Biodistribution: Pancreas (% dose/g)
Report the figure in % dose/g without appending any unit label.

In the examples that follow, each entry is paired with its recorded Biodistribution: Pancreas.
MOLECULE	OBSERVED
O=C(O)CCc1ccc2c(n1)C[N+]13CC[N+]45CC(=O)[O][68Ga-3]14([O]C(=O)C3)([O]2)[O]c1ccc(CCC(=O)NCCCCCC(=O)NCCCC[C@H](NC(=O)N[C@@H](CCC(=O)O)C(=O)O)C(=O)O)nc1C5 (stereo partly shown) [[^68Ga]2]	0.44
O=C(O)CC[C@H](NC(=O)CCc1ccc2c(c1)C[N+]13CC[N+]45CC(=O)[O][68Ga-3]41([O]C(=O)C3)([O]c1ccc(CCC(=O)NCCCCCC(=O)NCCCC[C@H](NC(=O)N[C@@H](CCC(=O)O)C(=O)O)C(=O)O)cc1C5)[O]2)C(=O)O (stereo partly shown) [[^68Ga]1f]	1.13
O=C(O)CCc1ccc(O)c(CN(CCN(CC(=O)O)Cc2cc(CCC(=O)NCCCCCC(=O)NCCCC[C@H](NC(=O)N[C@@H](CCC(=O)O)C(=O)O)C(=O)O)ccc2O)CC(=O)O)n1 [[^68Ga]4a, metal not drawn]	1.09

# next molecule below
Request: Answer with the recorded Biodistribution: Pancreas of C[C@H](NC(=O)CCc1ccc2c(c1)C[N+]13CC[N+]45CC(=O)[O][68Ga-3]41([O]C(=O)C3)([O]c1ccc(CCC(=O)NCCCCCC(=O)NCCCC[C@H](NC(=O)N[C@@H](CCC(=O)O)C(=O)O)C(=O)O)cc1C5)[O]2)C(=O)O (stereo partly shown) [[^68Ga]1d] only.
Result: 1.02

The origin of these recorded values is patent US10688200B2.
